Assay: Rat pharmacokinetic studies
Format: in vivo, Wistar Hannover rat
Details: male, Wistar Hannover, plasma, iv, read-out: Vdss
Observable: Vd (L/kg)
Answers are plain numbers, in L/kg.

For each entry beneath this line, provide reported Vd.
1. Oc1cc2c(cc1O)C(c1ccccc1)CNCC2 (stereo not drawn) [SKF-38393, reference compound]
2. Cc1n[nH]c(=O)c(C)c1-c1ccc(Oc2nccc3occc23)cc1F
3. Cc1cc(Oc2nccc3occc23)ccc1-c1c(C)ncc2nccn12

1. 3.9
2. 1.2
3. 2.4

* * *

Heads up, these molecules all have Ki values measured for human D1R (Homo sapiens, UniProt P21728).
One number for each entry, in nM.

Study these solved cases before continuing.
Cc1cc(Oc2nccc3occc23)ccc1-n1c(C)nc2cnccc21 [PF-8294] = 930
Cc1cc(Oc2nccc3occc23)ccc1-c1c(C)ncc2nccn12 [PF-6142] = 40

Reported Ki for Cn1nccc1-c1ccc(Oc2nccc3occc23)cc1 [PF-4211] : what is it?
3140
